Measured IC50 by item
target: various mutants of kinase EGFR (BaF3 cell lines stably transfected with kinase) (Homo sapiens, UniProt P00533); construct: other: BaF3 cells stably transfected with EGFR Δ19Del; MTS, 48 h; other: BaF3 cell line stably transfected with EGFR Δ19Del; assay: Growth inhibitory activity of compounds on BaF3 cell lines stably transfected with kinase (MTS, 48 h); format: cell-based; conditions: BaF3 cells stably transfected with EGFR Δ19Del, read-out: IC50, growth inhibition, Δ19Del
Sequence (P00533 with tags, fused parts or gaps DEL746-750): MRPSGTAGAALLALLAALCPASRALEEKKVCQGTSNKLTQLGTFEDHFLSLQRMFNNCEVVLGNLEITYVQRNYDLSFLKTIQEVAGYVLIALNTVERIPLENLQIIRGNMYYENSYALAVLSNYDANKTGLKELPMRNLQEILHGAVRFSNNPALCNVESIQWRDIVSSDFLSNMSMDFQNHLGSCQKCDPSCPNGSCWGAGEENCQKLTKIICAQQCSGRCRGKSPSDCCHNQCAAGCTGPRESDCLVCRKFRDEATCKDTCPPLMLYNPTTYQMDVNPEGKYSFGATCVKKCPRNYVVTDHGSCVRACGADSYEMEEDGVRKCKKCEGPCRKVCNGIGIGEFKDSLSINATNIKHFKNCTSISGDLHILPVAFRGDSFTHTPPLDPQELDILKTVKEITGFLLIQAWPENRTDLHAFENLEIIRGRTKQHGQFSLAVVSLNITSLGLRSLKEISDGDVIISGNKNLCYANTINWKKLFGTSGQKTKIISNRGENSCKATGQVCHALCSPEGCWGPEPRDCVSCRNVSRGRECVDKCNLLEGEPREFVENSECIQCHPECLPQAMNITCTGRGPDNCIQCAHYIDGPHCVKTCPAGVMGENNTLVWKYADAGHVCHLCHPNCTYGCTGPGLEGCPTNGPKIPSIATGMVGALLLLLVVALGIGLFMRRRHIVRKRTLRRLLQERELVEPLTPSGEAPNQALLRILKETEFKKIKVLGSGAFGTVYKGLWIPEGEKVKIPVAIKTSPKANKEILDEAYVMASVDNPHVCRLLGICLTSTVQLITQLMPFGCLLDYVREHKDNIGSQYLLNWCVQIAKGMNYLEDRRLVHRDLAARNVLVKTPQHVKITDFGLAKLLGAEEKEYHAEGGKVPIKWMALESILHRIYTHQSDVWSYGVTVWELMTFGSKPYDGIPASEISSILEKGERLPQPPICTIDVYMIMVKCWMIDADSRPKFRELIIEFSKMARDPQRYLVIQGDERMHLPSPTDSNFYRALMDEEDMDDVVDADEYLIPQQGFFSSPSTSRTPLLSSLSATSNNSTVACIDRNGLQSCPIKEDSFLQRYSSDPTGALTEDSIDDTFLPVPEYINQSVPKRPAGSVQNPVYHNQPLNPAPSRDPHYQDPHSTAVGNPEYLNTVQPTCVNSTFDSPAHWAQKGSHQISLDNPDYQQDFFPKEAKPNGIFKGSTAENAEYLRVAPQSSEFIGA

// worked examples, IC50 included
compound | experimental result
COc1cc(N2CCC(N3CCN(C)CC3)CC2)ccc1Nc1ncc(Br)c(Nc2ccc3nccnc3c2N(C2CC2)S(C)(=O)=O)n1 | 50 to 500 nM
COc1cc(N2CCC(N3CCN(C)CC3)CC2)ccc1Nc1ncc(C(F)(F)F)c(Nc2ccc3nccnc3c2N(C)S(C)(=O)=O)n1 | 50 to 500 nM
CCc1cc(Nc2ncc(Cl)c(Nc3ccc4nccnc4c3N(C3CC3)S(C)(=O)=O)n2)c(OC(F)(F)F)cc1N1CCC(N2CCN(C)CC2)CC1 | 50 to 500 nM

Entry "C=Cc1cc(Nc2ncc(Br)c(Nc3ccc4nccnc4c3N(C)S(C)(=O)=O)n2)c(OC(F)(F)F)cc1N1CCC(N2CCN(C)CC2)CC1" needs its IC50 filled in; supply it.
≤ 50 nM

Entry "COc1cc(N2CCC(N(C)C)CC2)c(C)cc1Nc1ncc(Cl)c(Nc2ccc3nccnc3c2N(C2CC2)S(C)(=O)=O)n1" needs its IC50 filled in; supply it.
≤ 50 nM

Entry "CCc1cc(Nc2ncc(Cl)c(Nc3ccc4nccnc4c3N(CC)S(C)(=O)=O)n2)c(OC)cc1N1CCC(N(C)C)CC1" needs its IC50 filled in; supply it.
≤ 50 nM

Entry "COc1cc(N2CCC(N3CCN(C)CC3)CC2)c(C)cc1Nc1ncc(C)c(Nc2ccc3nccnc3c2N(C)S(C)(=O)=O)n1" needs its IC50 filled in; supply it.
≤ 50 nM
